Where do the numbers come from? From patent US20150087812A1.

# target: recombinant human ATX beta isoform with N-terminal purification tag (human, UniProt Q13822 49-863)
# testSummary: ELISA, Fab-His captured by anti-Fd, 5 nM biotinylated human ATX beta
Fab Binding values for the binders below.

Solved cases (2 shown):
* Fab F135 (VH H138, VL L118) (Fab, V domains shown, Soluble Fab-His) VH: QVQLVQSGAEVKKPGSSVKVSCKASGGTFSSYAISWVRQAPGQGLEWMGGIIPIFGTANYAQKFQGRVTITADESTSTAYMELSSLRSEDTAVYYCARDFLSQFSWLDYWGQGTLVTVSS VL: EIVLTQSPGTLSLSPGERATLSCRASQSVSSSYLAWYQQKPGQAPRLLIYGASSRATGIPDRFSGSGSGTDFTLTISRLEPEDFAVYYCQQSSGFPLTFGQGTKVEIK | 2e+06 relative chemiluminescence units
* Fab F74 (VH H68, VL L68) (Fab, V domains shown, Soluble Fab-His) VH: QVQLVQSGAEVKKPGSSVKVSCKASGGTFSSYAISWVRQAPGQGLEWMGGIIPIFGTANYAQKFQGRVTITADESTSTAYMELSSLRSEDTAVYYCARDGDVNSVYSSGLDYWGQGTLVTVSS VL: EIVLTQSPATLSLSPGERATLSCRASQSVNKFLAWYQQKPGQAPRLLIYFASNRATGIPARFSGSGSGTDFTLTISSLEPEDFAVYYCQQYNHAPFTFGQGTKVEIK | 1.7e+06 relative chemiluminescence units

The record that follows has no Fab Binding shown yet.
Fab Binding reading for Fab F3 (VH H2, VL L2) (Fab, V domains shown, Soluble Fab-His) VH: QVQLVQSGAEVKKPGSSVKVSCKASGGTFSSYAISWVRQAPGQGLEWMGGIIPIFGTANYAQKFQGRVTITADESTSTAYMELSSLRSEDTAVYYCARDDLPLGRLDYWGQGTLVTVSS VL: EIVLTQSPATLSLSPGERATLSCRASQSVNNFLAWYQQKPGQAPRLLIYGASNRATGIPARFSGSGSGTDFTLTISSLEPEDFAVYYCQQFKGAPLTFGQGTKVEIK : 1.4e+06 relative chemiluminescence units
